The origin of these recorded values is patent US9120749B2.

tested on: DU4475; experiment: Cell-based assay: anti-proliferative activity, Cell Counting Kit-8, 72 hours (DU4475); settings: Homo sapiens, DU-4475, DU4475 cells
Please respond with Fulfilled when measured IC50 is strictly beneath 1 µM, and with Not fulfilled in all other cases.

Before answering, review these 4 worked examples.
- smiles notation: "COc1cc(-c2ccc3ncc(C(=O)C4CC4)c(N4CCN(C(=O)CN(C)C)CC4)c3c2)cc(Cl)c1O"
  assigned class: "Fulfilled"
- smiles notation: "COc1cc(-c2ccc3ncc(C(C)=O)c(N[C@H]4CC[C@H](CN(C)C)CC4)c3c2)cc(Cl)c1O"
  assigned class: "Fulfilled"
- smiles notation: "O=C(c1cnc2ccc(-c3cc(Cl)c(O)c(Cl)c3)cc2c1-c1ccc(OCCN2CCCC2)cc1)C1CC1"
  assigned class: "Not fulfilled"
- smiles notation: "CCOc1cc(-c2ccc3ncc(C(=O)C4CC4)c(N4CCC(CN(C)C)CC4)c3c2)cc(Cl)c1O"
  assigned class: "Fulfilled"

Lab note: next molecule to report on.
Query: Take the molecule COc1cc(-c2ccc3ncc(C(=O)C4CC4)c(-c4cnc(N5CCN(C)CC5)nc4)c3c2)cc(Cl)c1O and say whether its IC50 is less than 1 µM.
Result: Not fulfilled

====

target: MELK (Homo sapiens, UniProt Q14680); test: Kinase assay: MELK activity, phosphorylation of FITC-labeled histone H3 peptide measured by IMAP fluorescence polarization; type: biochemical; conditions: read-out: IC50 (μM) (kinase assay)
Sequence (Q14680 whole entry, looked up): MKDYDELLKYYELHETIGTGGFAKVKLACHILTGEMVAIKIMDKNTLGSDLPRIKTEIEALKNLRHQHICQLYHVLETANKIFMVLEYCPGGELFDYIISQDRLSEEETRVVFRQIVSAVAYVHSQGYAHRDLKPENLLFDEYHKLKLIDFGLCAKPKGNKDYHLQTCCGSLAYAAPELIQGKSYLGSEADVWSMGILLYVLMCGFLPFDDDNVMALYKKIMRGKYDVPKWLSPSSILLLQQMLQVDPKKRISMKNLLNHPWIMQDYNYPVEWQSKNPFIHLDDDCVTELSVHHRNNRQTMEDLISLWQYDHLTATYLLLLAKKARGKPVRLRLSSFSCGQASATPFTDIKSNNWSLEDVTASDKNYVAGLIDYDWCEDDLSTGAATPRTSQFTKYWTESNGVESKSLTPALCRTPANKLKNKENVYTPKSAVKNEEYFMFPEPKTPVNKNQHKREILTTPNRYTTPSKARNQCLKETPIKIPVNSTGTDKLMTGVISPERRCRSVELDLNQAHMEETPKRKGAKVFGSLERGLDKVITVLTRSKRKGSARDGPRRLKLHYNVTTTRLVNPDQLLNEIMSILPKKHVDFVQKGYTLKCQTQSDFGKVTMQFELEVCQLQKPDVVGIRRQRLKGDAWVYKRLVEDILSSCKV
Please respond with Criterion met when measured IC50 is strictly beneath 0.003 µM, and with Criterion not met in all other cases.

Before answering, review these 4 worked examples.
- molecule: "NC1CCN(c2ncc(Nc3c(C(=O)C4CC4)cnc4ccc(-c5cc(Cl)c(O)c(Cl)c5)cc34)cn2)C1 (stereo not shown)"
  assigned class: "Criterion met"
- molecule: "COc1cc(-c2ccc3ncc(C(=O)C4CC4)c(Nc4ccc(CCN(C)C)cc4)c3c2)cc(Cl)c1O"
  assigned class: "Criterion not met"
- molecule: "COc1cc(-c2ccc3ncc(C(=O)C(C)C)c(Nc4ccc(CN(C)C)cc4)c3c2)cc(Cl)c1O"
  assigned class: "Criterion not met"
- molecule: "CC(=O)c1cnc2ccc(-c3cc(Cl)c(O)c(Cl)c3)cc2c1N[C@H]1C[C@H](CN(C)C)C1"
  assigned class: "Criterion not met"

Lab note: next molecule to report on.
Query: Take the molecule CC1(N)CCC(Nc2c(C(=O)C3CC3)cnc3ccc(-c4cc(Cl)c(O)c(Cl)c4)cc23)CC1 (stereo not shown) and say whether its IC50 is less than 0.003 µM.
Result: Criterion not met

====

// values below are reported IC50
system: HT-1197 cells; assay: Cell-based assay: anti-proliferative activity, Cell Counting Kit-8, 72 hours (HT-1197, negative control without MELK expression); details: Homo sapiens, HT1197, 72 h, HT1197 cells (negative control, no MELK expression), 72 hours
The figure you give is taken to be in µM; do not add the unit.

Some molecules with known IC50 results, for comparison:
- molecule: "CC1(N)CCC(Nc2c(C(=O)C3CC3)cnc3ccc(-c4cc(Cl)c(O)c(Cl)c4)cc23)CC1 (stereo not shown)"
  IC50 / µM: 0.67
- molecule: "O=C(c1cnc2ccc(-c3cc(F)c(O)c(Cl)c3)cc2c1N[C@H]1CC[C@H](CNCCF)CC1)C1CC1"
  IC50 / µM: 0.98
- molecule: "CC(=O)c1cnc2ccc(-c3cc(Cl)c(O)c(Cl)c3)cc2c1Nc1ccc(CN2CCN(C)CC2)cc1"
  IC50 / µM: 8.7

Query: # query: IC50 of entry COc1cc(-c2ccc3ncc(C(=O)C4CC4)c(NC4CCC(C)(N)CC4)c3c2)cc(Cl)c1O (stereo not shown)
Result: 0.46
